B1: TAF7L (parent)
chain: PDVENEVKRLLRSDAEAVSTRWEV

- Variants of: B1
- protocol.summary: protein stability index of a GFP-peptide fusion (GPS, HEK-293T) (PSI 1-6); higher = more stable;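 note: lentivirally expressed fusions sorted by FACS into six bins by GFP to DsRed ratio, PSI derived from sequencing read proportions per bin multiplied by bin number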
- test.settings: c terminus: a fixed tail appended
Label class 1 when protein stability index is at or above 3; otherwise label class 0.

Reported protein stability index reaches at least 3 for E4T ? class 1

Reported protein stability index reaches at least 3 for S19H ? class 1

Reported protein stability index reaches at least 3 for V7Q ? class 1

Reported protein stability index reaches at least 3 for V3H ? class 1

Reported protein stability index reaches at least 3 for L10W ? class 0

Data provenance is the supplement of paper PMC10567573.
